Assay: qHTS assay to identify small molecule antagonists of the retinoid acid receptor (RAR) signaling pathway - cell viability counter screen (AID 1159551); further: nearly all actives have a fitted effect of over 35% in size
Conditions: C3RL4 cells viability, ATP luminescence (CellTiter-Glo), 6 h; series mostly up to 92.4 µM
Results filed as inconclusive are left out. Calls of active or inactive are those of the source. The call rests on the fitted dose curve; in most records, active means well fitted cell-killing curve with a large enough effect in the repeat runs; inconclusive means weak or mixed curves, or effect the other way; inactive means flat fitted curve, though single readings scatter.
A correct response names exactly one class from active, inactive

Request: # lookup: test call for COc1ncnc(NS(=O)(=O)c2ccc(N)cc2)c1OC
Response: inactive

Request: Assay outcome for CC(C)(O)c1ccc(CNC(=O)c2cccnc2Oc2ccc3nonc3c2)cc1 : what was it?
Response: inactive

Request: Identify the outcome logged in this assay for the molecule shown: CC1(C)[C@@H](OC(=O)CCC(=O)O)CC[C@]2(C)[C@H]3C(=O)C=C4[C@@H]5C[C@@](C)(C(=O)O)CC[C@]5(C)CC[C@@]4(C)[C@]3(C)CC[C@@H]12
Response: inactive
